Record form. Attribute: Redroot pigweed plant response rating. Fill in for each entry.
Tested on: pigweed
protocolNotes: Test B pre/postemergence pigweed
Format: in vivo, Amaranthus retroflexus
assayConditions: Rate 125 g/ha, Postemergence; scale 0 to 10
Answers are plain numbers.

Record excerpt, results attached:
# compound, measurement
data = [
    ("Cc1nc(C)c(Cn2c(=O)on(C(=O)N(c3ccc(F)cc3)C(C)C)c2=O)s1 [Compound 232]", 3),
    ("CCc1cccc(C)c1-n1c(=O)on(C(=O)N(c2ccc(F)cc2)C(C)C)c1=O [Compound 201]", 0),
    ("C#CCn1c(=O)on(C(=O)N(c2ccc(F)cc2)C(C)C)c1=O [Compound 212]", 5),
]

Record Redroot pigweed plant response rating for all entries; do not skip any.
1. CC(C)N(C(=O)n1oc(=O)n([C@H](C)c2ccccc2)c1=O)c1ccc(F)cc1 [Compound 179]
2. CC(C)N(C(=O)n1oc(=O)n(Cc2ccco2)c1=O)c1ccc(F)cc1F [Compound 208]

[0, 0]

---

Test system: wild oat
protocolNotes: Test B pre/postemergence wild oat
Assay type: in vivo, Avena fatua
assayConditions: Rate 250 g/ha, Postemergence; scale of 0 to 10 where 0 is no effect and 10 is complete control
observedProperty: Plant response rating, Wild oats

# compound, observedProperty, measurement
records = [
    ("CC(C)N(C(=O)n1oc(=O)n(C2CCOCC2)c1=O)c1ccc(F)cc1", "Plant response rating, Wild oats", 3),
    ("CC(C)N(C(=O)n1oc(=O)n(CC2CCC2)c1=O)c1ccccc1", "Plant response rating, Wild oats", 3),
    ("Cc1ccccc1-n1c(=O)on(C(=O)N(c2ccc(OC(F)(F)F)cc2)C(C)C)c1=O", "Plant response rating, Wild oats", 0),
    ("CC(C)N(C(=O)n1oc(=O)n(CC(C)(C)C)c1=O)c1ccc(F)cc1F", "Plant response rating, Wild oats", 0),
    ("CC(C)N(C(=O)n1oc(=O)n(C[Si](C)(C)C)c1=O)c1ccccc1", "Plant response rating, Wild oats", 0),
]

# return Plant response rating, Wild oats for each item in the list
1. C=CCn1c(=O)on(C(=O)N(c2ccc(Cl)cc2)C(C)C2CC2)c1=O (stereo not shown)
2. CC(C)N(C(=O)n1oc(=O)n(CCC2OCCCO2)c1=O)c1ccccc1
3. CC(C)N(C(=O)n1oc(=O)n(CCCC(F)(F)F)c1=O)c1ccc(F)cc1F
4. CC(C)N(C(=O)n1oc(=O)n(CCCCF)c1=O)c1ccc(F)cc1F
5. CC(C)N(C(=O)n1oc(=O)n(CCCF)c1=O)c1ccccc1

1. 0
2. 2
3. 0
4. 7
5. 4

---

Test system: velvetleaf
protocolNotes: Test B pre/postemergence velvetleaf
Format: in vivo, Abutilon theophrasti
assayConditions: Preemergence, Rate 250 g/ha; scale 0 to 10, 0 is no effect, 10 is complete control
Protocol: […] At the same time, these crop and weed species were also treated with postemergence applications of test chemicals formulated in the same manner. […] Treated plants and controls were maintained in a greenhouse for twelve to sixteen days, after which all species were compared to controls and visually evaluated. […]
Would you mind telling me the reported Velvetleaf plant response rating of each entry?
Numbers only.

# compound, observedProperty, measurement
records = [
    ("CC(C)N(C(=O)n1oc(=O)n(-c2ccnn2C)c1=O)c1ccc(F)cc1 [Compound 124]", "Velvetleaf plant response rating", 0),
    ("CC(=O)NCn1c(=O)on(C(=O)N(c2ccc(F)cc2)C(C)C)c1=O [Compound 473]", "Velvetleaf plant response rating", 0),
]

For each entry beneath this line, provide reported Velvetleaf plant response rating.
1. CC(C)N(C(=O)n1oc(=O)n(C(C)C(=O)N(C)C)c1=O)c1ccccc1 (centres unmarked) [Compound 479]
2. CC(C)N(C(=O)n1oc(=O)n(CO)c1=O)c1ccc(F)cc1 [Compound 470]
3. CC(C)N(C(=O)n1oc(=O)n(CCCl)c1=O)c1ccccc1 [Compound 469]

1. 1
2. 0
3. 6
